# Procedure Details: Dynamic SPECT imaging and biological distribution in dogs after intravenous injection
# Assay type: in vivo
# Applied Conditions: 10 Minutes
For each record, write down the corresponding Target/Non-Target Uptake Ratio Heart/Liver.
Respond numerically, and do not add a unit to the figure.

q: State its Target/Non-Target Uptake Ratio Heart/Liver for this molecule: [C-]#[N+]CC(C)(C)OC.[C-]#[N+]CC(C)(C)OC.[C-]#[N+]CC(C)(C)OC.[C-]#[N+]CC(C)(C)OC.[C-]#[N+]CC(C)(C)OC.[C-]#[N+]CC(C)(C)OC.[Tc] [[^99mTc(MIBI)6]^+, reference compound]
a: 0.77

q: In one line, give reported Target/Non-Target Uptake Ratio Heart/Liver of the entry COC(C)(C)CN=[C]=[99Tc+](=[C]=O)(=[C]=O)(=[C]=O)(=[C]=NCC(C)(C)OC)=[C]=NCC(C)(C)OC [[^99mTc(CO)3(MIBI)3]^+] .
a: 0.92
